PROCEDURE DETAILS: Clearance in mouse hepatic microsomes by LC-MS/MS analysis
Type: ADME, Microsome
SETTINGS: liver microsomes, read-out: CLH
OBSERVATION TYPE: microsomal CLint (µL/min/mg)

{"CHEMICAL STRUCTURE": "COc1c(C(=O)NCCN2CCOCC2)n(C)c2c1c(=O)n(CC(=O)c1ccccc1)c1ccccc21", "microsomal CLint, µL/min/mg": 237}

(I) COc1c(C(=O)NCCN2CCCCC2)n(C)c2c1c(=O)n(CC(=O)c1ccccc1)c1ccccc21
(II) COc1c(C(=O)NC2CCN(C(=O)CO)CC2)n(C)c2c1c(=O)n(CC(=O)c1ccccc1)c1ccccc21
Query: Returns: the label, I or II , whose recorded microsomal CLint is the lower number. Answer by stating the label of the chosen item.
Result: II
(II: 11 µL/min/mg, I: 192 µL/min/mg)

----------
PROCEDURE DETAILS: Clearance in mouse hepatic microsomes by LC-MS/MS analysis
Assay type: ADME, Microsome
SETTINGS: liver microsomes, read-out: CLH
OBSERVATION TYPE: microsomal CLint (µL/min/mg)

{"CHEMICAL STRUCTURE": "CCOc1c(C(=O)NCCN2CCCC2)n(C)c2c1c(=O)n(CC(=O)c1ccccc1)c1ccccc21", "OBSERVATION TYPE": "microsomal CLint", "UNIT ABBREVIATION": "µL/min/mg", "ASSAY VALUE": 155}

(I) COc1c(C(=O)NCCN2CCCC2)n(C)c2c1c(=O)n(CC(=O)c1ccccc1)c1ccccc21
(II) COc1c(C(=O)NC2CCN(CCO)CC2)n(C)c2c1c(=O)n(CCc1ccccc1)c1ccccc21
Query: // max by microsomal CLint over [ I , II ] Output the label that corresponds to your choice.
Result: I

----------
PROCEDURE DETAILS: Clearance in human hepatic microsomes by LC-MS/MS analysis
Assay type: ADME, Microsome
SETTINGS: liver microsomes, read-out: CLH
OBSERVATION TYPE: microsomal CLint (µL/min/mg)

{"CHEMICAL STRUCTURE": "COc1c(C(=O)NCCN2CCCCC2)n(C)c2c1c(=O)n(CC(=O)c1ccccc1)c1ccccc21", "UNIT ABBREVIATION": "µL/min/mg", "microsomal CLint": 30}
{"CHEMICAL STRUCTURE": "COc1c(C(=O)NC2CCNCC2)n(C)c2c1c(=O)n(CC(=O)c1ccccc1)c1ccccc21", "UNIT ABBREVIATION": "µL/min/mg", "microsomal CLint": 2}
{"CHEMICAL STRUCTURE": "COc1c(C(=O)NC2CCN(CCO)CC2)n(C)c2c1c(=O)n(CC(=O)c1ccccc1)c1ccccc21", "UNIT ABBREVIATION": "µL/min/mg", "microsomal CLint": 6}
{"CHEMICAL STRUCTURE": "COc1c(C(=O)NCCN2CCOCC2)n(C)c2c1c(=O)n(CC(=O)c1ccccc1)c1ccccc21", "UNIT ABBREVIATION": "µL/min/mg", "microsomal CLint": 73}

(P) COc1c(C(=O)NCCN2CCCC2)n(C)c2c1c(=O)n(CC(=O)c1ccccc1)c1ccccc21
(Q) COc1c(C(=O)NC2CCN(CCO)CC2)n(C)c2c1c(=O)n(CCc1ccccc1)c1ccccc21
(R) CCC(=O)Cn1c(=O)c2c(OC)c(C(=O)NC3CCN(CCO)CC3)n(C)c2c2ccccc21
(S) CCOc1c(C(=O)NCCN2CCCC2)n(C)c2c1c(=O)n(CC(=O)c1ccccc1)c1ccccc21
Query: List these items ordered by microsomal CLint, big to small. To answer, arrange all of the labels according to the requested order.
Result: Q, S, P, R

Reference source: ChEMBL document CHEMBL2086236
